molecular target: Man(a1-3)[Man(a1-6)]Man(a1-6)[Man(a1-3)]Man; experiment: glycan array binding signal (z-score within array); higher = stronger binding; details: glycan notation: IUPAC condensed, linker removed
About 410 targets per protein were measured; listed, in parts, are those with the strongest signals and a random draw of the rest.
value_type: glycan array binding signal (z-score)

Given Pbx1CASH domain (Cryptococcus neoformans) (protein) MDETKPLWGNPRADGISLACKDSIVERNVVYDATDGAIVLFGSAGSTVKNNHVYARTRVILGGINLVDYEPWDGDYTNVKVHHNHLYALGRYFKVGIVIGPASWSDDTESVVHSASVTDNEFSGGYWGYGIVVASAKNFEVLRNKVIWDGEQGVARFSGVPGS , state its recorded glycan array binding signal (z-score). -0.5

Given BC2L-D C-terminal domain (Burkholderia cenocepacia), Q39MQ9_BURS3 (protein) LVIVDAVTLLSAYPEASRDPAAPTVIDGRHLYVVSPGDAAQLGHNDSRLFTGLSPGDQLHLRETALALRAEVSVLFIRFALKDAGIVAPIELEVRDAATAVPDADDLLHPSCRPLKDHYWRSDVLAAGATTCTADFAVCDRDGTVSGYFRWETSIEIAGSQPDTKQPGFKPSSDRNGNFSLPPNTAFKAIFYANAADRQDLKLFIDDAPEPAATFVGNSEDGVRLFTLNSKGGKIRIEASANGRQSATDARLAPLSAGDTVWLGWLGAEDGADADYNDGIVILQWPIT , state its recorded glycan array binding signal (z-score). 5.02

Given PfulAvr4 (Pseudocercospora fuligena) (protein) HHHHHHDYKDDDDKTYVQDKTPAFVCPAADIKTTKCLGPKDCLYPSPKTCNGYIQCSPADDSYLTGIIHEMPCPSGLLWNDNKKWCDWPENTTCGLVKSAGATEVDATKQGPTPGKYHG , state its recorded glycan array binding signal (z-score). -0.076

Given AcfC (Vibrio cholerae), Q57410 (protein) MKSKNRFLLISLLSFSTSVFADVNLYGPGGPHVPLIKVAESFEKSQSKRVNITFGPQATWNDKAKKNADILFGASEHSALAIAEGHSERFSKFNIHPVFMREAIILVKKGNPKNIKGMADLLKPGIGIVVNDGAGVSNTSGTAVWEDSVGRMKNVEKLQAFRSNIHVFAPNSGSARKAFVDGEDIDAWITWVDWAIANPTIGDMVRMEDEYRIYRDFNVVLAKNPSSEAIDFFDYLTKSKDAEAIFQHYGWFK , state its recorded glycan array binding signal (z-score). 0.134

Given Epa3to2 (Candida glabrata) (protein) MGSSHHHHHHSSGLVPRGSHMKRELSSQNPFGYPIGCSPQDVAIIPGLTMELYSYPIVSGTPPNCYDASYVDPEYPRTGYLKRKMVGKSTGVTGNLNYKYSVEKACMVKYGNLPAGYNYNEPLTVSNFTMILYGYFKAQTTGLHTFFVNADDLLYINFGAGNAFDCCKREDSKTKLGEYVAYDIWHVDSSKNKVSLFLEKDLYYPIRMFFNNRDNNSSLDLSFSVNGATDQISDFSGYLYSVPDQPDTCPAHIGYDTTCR , state its recorded glycan array binding signal (z-score). 0.52

Given Pwp2 (Candida glabrata) (protein) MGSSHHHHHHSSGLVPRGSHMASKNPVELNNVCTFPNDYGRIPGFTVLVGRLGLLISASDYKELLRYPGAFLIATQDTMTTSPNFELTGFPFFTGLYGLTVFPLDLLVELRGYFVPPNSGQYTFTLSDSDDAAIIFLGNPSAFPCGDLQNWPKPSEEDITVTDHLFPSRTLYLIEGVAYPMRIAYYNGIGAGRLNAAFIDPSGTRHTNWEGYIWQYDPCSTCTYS , state its recorded glycan array binding signal (z-score). 5.45

Given Pwp7 (Candida glabrata) (protein) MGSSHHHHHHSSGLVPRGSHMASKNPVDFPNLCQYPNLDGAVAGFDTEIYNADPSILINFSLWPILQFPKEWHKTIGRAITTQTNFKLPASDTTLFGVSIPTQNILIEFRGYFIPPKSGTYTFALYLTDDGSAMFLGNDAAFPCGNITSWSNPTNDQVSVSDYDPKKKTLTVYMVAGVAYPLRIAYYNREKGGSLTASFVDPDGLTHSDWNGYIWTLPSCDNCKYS , state its recorded glycan array binding signal (z-score). 2.11
